ASSAY_SYSTEM: succinate dehydrogenase/complex II (SDH) (Rattus norvegicus, UniProt P21913+Q641Z9+Q6PCT8+Q920L2)
Construct: freshly isolated muscle mitochondria were assayed; from tissue; host or cells: rat skeletal muscle mitochondria (Wistar, Harlan Laboratories)
Sequence (Q920L2 35-656): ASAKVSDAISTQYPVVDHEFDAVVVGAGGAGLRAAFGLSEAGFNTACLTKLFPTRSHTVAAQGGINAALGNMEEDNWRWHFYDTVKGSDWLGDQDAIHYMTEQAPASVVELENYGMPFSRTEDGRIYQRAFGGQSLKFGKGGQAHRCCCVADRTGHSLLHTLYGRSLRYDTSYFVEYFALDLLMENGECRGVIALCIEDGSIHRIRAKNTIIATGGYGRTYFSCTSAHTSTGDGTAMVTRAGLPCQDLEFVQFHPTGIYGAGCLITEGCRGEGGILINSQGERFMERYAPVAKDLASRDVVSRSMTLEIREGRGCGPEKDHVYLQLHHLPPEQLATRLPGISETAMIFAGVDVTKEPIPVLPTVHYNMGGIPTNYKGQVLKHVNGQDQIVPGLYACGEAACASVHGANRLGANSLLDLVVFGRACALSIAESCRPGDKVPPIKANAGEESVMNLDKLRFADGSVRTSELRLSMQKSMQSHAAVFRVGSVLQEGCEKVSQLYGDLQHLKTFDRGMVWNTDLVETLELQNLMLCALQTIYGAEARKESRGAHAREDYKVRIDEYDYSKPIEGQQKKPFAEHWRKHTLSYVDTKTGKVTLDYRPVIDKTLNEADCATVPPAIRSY
Sequence (P21913 31-282): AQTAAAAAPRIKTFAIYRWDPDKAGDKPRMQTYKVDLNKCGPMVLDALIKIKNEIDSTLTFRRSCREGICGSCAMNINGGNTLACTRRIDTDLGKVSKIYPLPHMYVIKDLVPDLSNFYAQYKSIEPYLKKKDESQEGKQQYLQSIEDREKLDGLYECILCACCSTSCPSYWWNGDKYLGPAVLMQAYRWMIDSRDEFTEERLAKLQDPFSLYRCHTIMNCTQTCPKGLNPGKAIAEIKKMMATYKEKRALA
Sequence (Q641Z9 30-169 limits assumed): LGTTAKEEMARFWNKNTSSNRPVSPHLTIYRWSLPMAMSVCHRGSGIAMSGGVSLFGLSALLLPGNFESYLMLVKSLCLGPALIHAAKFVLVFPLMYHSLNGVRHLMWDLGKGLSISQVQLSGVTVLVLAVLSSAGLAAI
Sequence (Q6PCT8 57-159): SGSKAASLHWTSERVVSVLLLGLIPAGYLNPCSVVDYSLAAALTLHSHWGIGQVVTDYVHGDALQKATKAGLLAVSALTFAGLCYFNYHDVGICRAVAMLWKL
EXPERIMENTAL_DETAILS: High-throughput screen: ROS production from succinate dehydrogenase/complex II (SDH)
Format: biochemical
CONDITIONS_USED: Table 7; percent change in ROS from DMSO controls
Items are presented alongside their recorded inhibition at 2.5 µM.
Return type: number; implicit unit %.

Check out these entries, answers already filled in.
Cc1ccccc1NS(=O)(=O)c1ccc(C2CCCCC2)cc1 [Compound 9]: -0.3
O=C(Nc1ccc(Br)cc1)[C@@H]1C2C=CC(C2)[C@@H]1C(=O)O (some centres unmarked) [Compound 28]: -1.3
CC(C)Cc1ccc(C(C)C(=O)Nc2ccccc2O)cc1 (centres unmarked) [Compound 5]: -2.3
COC(=O)CCC(=O)Nc1ccc(C)cc1 [Compound 53]: 0.3

Ask | Read the entry O=C(O)CSc1cccc(C(=O)Nc2ccc(Br)cc2)c1 [Compound 47] and write its reported inhibition at 2.5 µM.
Reply | -1.3
